- STUDY TARGET: Phospholipase A and acyltransferase 5 (Homo sapiens)
- Sequence (Q96KN8 whole entry): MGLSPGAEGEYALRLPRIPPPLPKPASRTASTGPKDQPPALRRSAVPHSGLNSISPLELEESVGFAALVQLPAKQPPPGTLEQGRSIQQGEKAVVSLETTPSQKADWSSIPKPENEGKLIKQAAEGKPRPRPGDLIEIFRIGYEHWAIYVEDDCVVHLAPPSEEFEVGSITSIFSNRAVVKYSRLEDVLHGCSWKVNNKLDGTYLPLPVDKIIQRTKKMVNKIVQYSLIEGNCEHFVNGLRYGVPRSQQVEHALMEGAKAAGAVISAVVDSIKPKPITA
- ASSAY PROTOCOL: Inhibition of full-length C-terminal FLAG-tagged human PLAAT5 expressed in HEK293T cell lysate preincubated for 30 mins followed by MB064 addition and measured after 20 mins by SDS-PAGE based ABPP analysis
ASSAY METRIC: pIC50
Bear in mind: pIC50 is minus log10 of a mol/L concentration; give just that figure.

Check the records and state pIC50 for "O=C(CCc1ccc(Cl)cc1)C(=O)NCCc1ccccc1"
6.40

# credit: BindingDB's records for doi:10.1021/acs.jmedchem.0c00522
